- ASSAYED TARGET: T1, MBP-scNS3 (Hepatitis C virus genotype 1b, UniProt P26663)
- T1 construct: made in house
- EXPERIMENTAL PROTOCOL: ONPG hydrolysis (β-galactosidase) assay in genetic screening bacteria as indicator of NS3 activity
- Type: cell-based, Hepatitis C virus (HCV) genotype Ib
- ASSAY CONTEXT: E. coli TG-I carrying pMGT14 and pMALc-NN-scFv; taken from FIG. 3A
REPORTED ENDPOINT: β-gal: β-galactosidase units

{"MOLECULE": "scFv 148: NS3-inhibiting single-chain antibody, SEQ ID NO:7; MBP fusion SEQ ID NO:21 (protein, scFv inhibitor) scFv: EIQLQQSGAELVKPGASVKLSCTASGFNIKDTFVHWVKQRPEQGLEWIGRIDPANGNTKYDPKFQGKATITAATSSNTAYLQLSSLTSEDTAVYYCATGLDYYAMDYWGQGTSVTVSSGGGGSGGGGSGGGGSDVVMTQTPLSPPVSLGDQASISCRSSQSLVHSNGNTYLHWYLQKPGQSPKLLIYKVSNRFSGVPDRFSGSGSGTDFTLKITRVEAEDLGLYFCSQSTHVPWTFGGGTKLEIKR", "REPORTED MEASUREMENT": "72 β-galactosidase units"}
